Test system: REH human ALL cells
protocolText: Clonogenic growth of REH ALL cells
Type: cell-based
measurementConditions: 0.1 μM
Raw Colony # overview

- compound: "CC(C)CC[C@@H](O)[C@@H](C)[C@H]1CC[C@H]2[C@@H]3CC=C4C[C@@H](O)CC[C@]4(C)[C@H]3CC[C@]12C [Oxy 22R, 22R-hydroxycholesterol, reference compound]"
  value: 33
- compound: "O=S(=O)(c1ccccc1)N(CC(F)(F)F)c1ccc(C(O)(C(F)(F)F)C(F)(F)F)cc1 [TO, TO901317, reference compound]"
  value: 44

Exam item: Entry CC(C)CC[C@@H](O)[C@](C)(O)[C@H]1CC[C@H]2[C@@H]3CC=C4C[C@@H](O)CC[C@]4(C)[C@H]3CC[C@]12C [Oxy16] : reported Raw Colony # = ?
Marked response: 65

Exam item: Entry C[C@]12CC[C@H]3[C@@H](CC=C4C[C@@H](O)CC[C@@]43C)[C@@H]1CC[C@@H]2[C@@](C)(O)CCc1ccc(F)cc1 [Oxy45] : reported Raw Colony # = ?
Marked response: 40

* * *

System: LXR
protocolText: LXR target gene expression by Q-RT-PCR in Saos-2 osteosarcoma cells
Type: cell-based, human
measurementConditions: Saos-2 cells (FIG. 2, 72 hours for TO)
experimentalReadout: expression of LXR target genes ABCA1 and SREBP1c

- compound: "CC(C)CCC[C@](C)(O)[C@H]1CC[C@H]2[C@@H]3CC=C4C[C@@H](O)CC[C@]4(C)[C@H]3CC[C@@]21C [Oxy 20S, 20(S)-hydroxycholesterol, reference compound]"
  value: "significant expression"
- compound: "CC(C)CC[C@@H](O)[C@@H](C)[C@H]1CC[C@H]2[C@@H]3CC=C4C[C@@H](O)CC[C@]4(C)[C@H]3CC[C@]12C [Oxy 22R, 22R-hydroxycholesterol, reference compound]"
  value: "significant expression"
- compound: "CC(C)CC[C@@H](O)[C@](C)(O)[C@H]1CC[C@H]2[C@@H]3CC=C4C[C@@H](O)CC[C@]4(C)[C@H]3CC[C@]12C"
  value: "significant expression"

* * *

Test system: LXR
protocolText: ABCA1 (LXR target gene) expression by Q-RT-PCR in M2-10B4 bone marrow stromal cells
measurementConditions: bone marrow stromal cells
experimentalReadout: LXR signaling activation

- compound: "C[C@]12CC[C@H]3[C@@H](CC=C4C[C@@H](O)CC[C@@]43C)[C@@H]1CC[C@@H]2[C@@](C)(O)CCc1ccc(Cl)cc1"
  LXR signaling activation: "Activate LXR Signaling"
- compound: "CC(C)CCC[C@](C)(O)C1CCC2C3CC=C4C=CCC[C@]4(C)C3CC[C@@]21C (stereo partly drawn)"
  LXR signaling activation: "Activate LXR Signaling"
- compound: "C[C@]12CC[C@H]3[C@@H](CC=C4C[C@@H](O)CC[C@@]43C)[C@@H]1CC[C@@H]2[C@@](C)(O)CCCc1ccccc1"
  LXR signaling activation: "Activate LXR Signaling"
- compound: "CC(C)CCC[C@](C)(O)C1CCC2C3CC=C4CC(=O)CC[C@]4(C)C3CC[C@@]21C (stereo partly drawn)"
  LXR signaling activation: "Activate LXR Signaling"
- compound: "CC(C)CCC[C@](C)(O)C1CCC2C3CC=C4C[C@H](O)CC[C@]4(C)C3CC[C@@]21C (stereo partly drawn)"
  LXR signaling activation: "Activate LXR Signaling"

Exam item: Query LXR signaling activation on LXR for CC(C)CCC[C@](C)(O)C1CCC2C3CCC4=CC(=O)CC[C@]4(C)C3CC[C@@]21C (stereo partly drawn)
Marked response: Activate LXR Signaling

Exam item: Query LXR signaling activation on LXR for `C[C@]12CC[C@H]3[C@@H](CC=C4C[C@@H](O)CC[C@@]43C)[C@@H]1CC[C@@H]2[C@@](C)(O)CCc1ccc(F)cc1`
Marked response: Activate LXR Signaling

Exam item: Query LXR signaling activation on LXR for `CC(C)CC[C@@H](O)[C@](C)(O)[C@H]1CC[C@H]2[C@@H]3CC=C4C[C@@H](O)CC[C@]4(C)[C@H]3CC[C@]12C`
Marked response: Activate LXR Signaling

Exam item: Query LXR signaling activation on LXR for `C[C@]12CC[C@H]3[C@@H](CC=C4C[C@@H](O)CC[C@@]43C)[C@@H]1CC[C@@H]2[C@@](C)(O)CCc1cccnc1`
Marked response: Activate LXR Signaling

* * *

Tested on: REH human ALL cells
protocolText: Clonogenic growth of REH ALL cells
Type: cell-based
measurementConditions: 0.5 μM
experimentalReadout: Raw Colony #

Here is how some compounds turned out for Raw Colony #.
- compound: "CC(C)CC[C@@H](O)[C@@H](C)[C@H]1CC[C@H]2[C@@H]3CC=C4C[C@@H](O)CC[C@]4(C)[C@H]3CC[C@]12C [Oxy 22R, 22R-hydroxycholesterol, reference compound]"
  subjectOfTest: "REH human ALL cells"
  Raw Colony #: 2
- compound: "CC(C)CC[C@@H](O)[C@](C)(O)[C@H]1CC[C@H]2[C@@H]3CC=C4C[C@@H](O)CC[C@]4(C)[C@H]3CC[C@]12C"
  subjectOfTest: "REH human ALL cells"
  Raw Colony #: 14
- compound: "C[C@]12CC[C@H]3[C@@H](CC=C4C[C@@H](O)CC[C@@]43C)[C@@H]1CC[C@@H]2[C@@](C)(O)CCc1ccc(F)cc1"
  subjectOfTest: "REH human ALL cells"
  Raw Colony #: 0.5

// switching to the query compound
Exam item: Entry O=S(=O)(c1ccccc1)N(CC(F)(F)F)c1ccc(C(O)(C(F)(F)F)C(F)(F)F)cc1 [TO, TO901317, reference compound] : reported Raw Colony # = ?
Marked response: 34

Data credit: patent US20160206631A1
